Source: patent US20250145711A1

Consider the following binders; for each one, report its % Retained 60° C..
molecular target: T1, TRCW5 antigen (CD3δε-Fc-Avi) (biotinylated (site not stated)); test: ELISA after heat
T1 construct: also called recombinant CD3
T1 sequence (chain, as listed by the source mutant limits assumed): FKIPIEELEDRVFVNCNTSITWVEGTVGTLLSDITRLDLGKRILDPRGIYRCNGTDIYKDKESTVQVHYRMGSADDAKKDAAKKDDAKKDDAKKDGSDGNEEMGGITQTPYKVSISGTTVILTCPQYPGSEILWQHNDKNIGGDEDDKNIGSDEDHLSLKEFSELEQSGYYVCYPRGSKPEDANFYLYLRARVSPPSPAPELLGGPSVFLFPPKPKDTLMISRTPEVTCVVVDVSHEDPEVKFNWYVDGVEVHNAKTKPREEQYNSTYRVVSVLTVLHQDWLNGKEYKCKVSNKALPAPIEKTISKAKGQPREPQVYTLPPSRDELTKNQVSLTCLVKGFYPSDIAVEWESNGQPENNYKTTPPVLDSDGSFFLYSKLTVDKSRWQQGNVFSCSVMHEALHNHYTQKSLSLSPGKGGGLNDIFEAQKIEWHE
Give the value, in units of %, as a plain number.

Incoming: Need % Retained 60° C. of CD3B2038 (scFv) scFv: QVQLVQSGAEVKKPGSSVKVSCKASGYTFTRSTMHWVKQAPGQGLEWMGYINPSSAYTNYAQKFQGRVTLTADKSTSTAYMELSSLRSEDTAVYYCASPQVHYDYNGFPYWGQGTLVTVSSGGSEGKSSGSGSESKSTGGSEIVLTQSPATLSASPGERVTLSCSASSSVSYMNWYQQKPGTAPRRLIYDSSKLASGVPARFSGSGSGRDYTLTISSLEPEDFAVYYCQQWSRNPPTFGGGTKVEIK , thanks.
Outgoing: 98

Incoming: Param item: CD3B2061 (scFv) scFv: QVQLVQSGAEVKKPGSSVKVSCKASGYTFTRSTMHWVKQAPGQGLEWIGYINPSSAYTNYAQKFQGRVTLTADKSTSTAYMELSSLRSEDTAVYYCASPQVHYDYNGFPYWGQGTLVTVSSGGSEGKSSGSGSESKSTGGSEIVLTQSPATLSASPGERVTLSCSASSSVSYMNWYQQKPGTAPRRWIYDSSKLASGVPARFSGSGSGRDYTLTISSLEPEDFAVYYCQQWSRNPPTFGGGTKVEIK
Outgoing: 107

Incoming: Param item: CD3B2029 (scFv) scFv: QVQLVQSGAEVKKPGSSVKVSCKASGYTFTRSTMHWVKQAPGQGLEWIGYINPSSAYTNYNQKFQGRVTLTADKSTSTAYMELSSLRSEDTAVYYCASPQVHYDYNGFPYWGQGTLVTVSSGGSEGKSSGSGSESKSTGGSEIVLTQSPATLSASPGERVTLSCSASSSVSYMNWYQQKPGQSPRRWIYDSSKLASGVPARFSGSGSGRDYTLTISSLEPEDFAVYYCQQWSRNPPTFGGGTKVEIK
Outgoing: 97
